# Assay overview: Accelerated thermal stability assay, HP-SEC
# Assay type: physicochemical
# Assay setup: 45° C., 2 weeks, 1 mg/ml in PBS
Parameter measured: HP SEC % monomer

INSERT INTO assay_data (molecule, data_value) VALUES
  ('AB1370026: anti-FRα fully human IgG1 antibody; VH SEQ ID NO: 39, VL SEQ ID NO: 40 (antibody, V domains shown) VH: EVQLVESGGGLVKPGGSLRLSCAASGFTFSSYAMSWVRQAPGKGLEWVSSISSGRSYIYYADSVKGRFTISRDNAKNSLYLKMNSLRDEDTAVYYCAREMQQLALDYWGQGTLVTVSS VL: DIQMTQSPSSLSASVGDRVTITCRASQGISNFLAWFQQAPGKAPKSLIYAASSLQSGVPSKFSGSGSGTDFTLTISSLQPEDFATYYCQQYNSYPFTFGQGTKLEIK', '97.3%'),
  ('AB1370083: anti-FRα fully human IgG1 antibody; VH SEQ ID NO: 43, VL SEQ ID NO: 44 (antibody, V domains shown) VH: EVQLVESGGGLVKPGGSLRLSCAASGFTFSSYNMNWVRQAPGKGLEWVSSISSGSSYIYYADSMKGRFTISRDNAKNSLFLQMNSLRAEDTAVYYCARGMTTLTFDYWGQGTLVTVSS VL: DIQMTQSPSSLSASVGDRVTITCRASQGISTFLAWFQQKPGKAPKSLIYAASSLQSGVPSKFSGSGSETDFTLTISSLQPEDFATYYCQQYISYPLTFGGGTKVEIK', '98.3%'),
  ('AB1370095: anti-FRα fully human IgG1 antibody; VH SEQ ID NO: 45, VL SEQ ID NO: 46 (antibody, V domains shown) VH: EVQLVESGGGLVKPGGSLRLSCAASGFTFSSYSMNWVRQAPGKGLEWVSSISSRSSYVYYADSVKGRFTISRDNAKNSLYLQMNSLRAEDTAVYYCARGMTTLTFDYWGQGTLVTVSS VL: DIQMTQSPSSLSASVGDRVTITCRASQGISSFLAWFQQKPGKAPKSLIYAASSLQSGVPSKFSGSGSGTDFTLTISSLQPEDFATYYCQQYNSYPLTFGGGTKVEIK', '96.6%'),
  ('AB1370035: anti-FRα fully human IgG1 antibody; VH SEQ ID NO: 41, VL SEQ ID NO: 42 (antibody, V domains shown) VH: QVQLQQSGPGLVKPSQTLSLTCAISGDSVSSNSAAWNWIRQSPSRGLEWLGRTYYRSNWYNDYTLSVKSRITVNPDTSKNQFSLQLNSVTPEDTAVYYCVRGVGRFDSWGQGTLVTVSS VL: DIQMTQSPSTLSASVGDRVIITCRASQSISSWLAWYQQKPGKAPKLLIYKASSLESGVPSRFSGSGSGTEFTLTITSLQPDDFASYYCQEYKTYSIFTFGPGTKVDIK', '97.3%');
